# credit: patent US7776863B2

# maps each entry to its Combination Indices at % HIV Inhibition (Confidence Interval) 75%
# Tested on: HIV-1 LAI
# runDescription: microbe, parasite or virus in culture
# runConditions: Compound 1 + named drug, EC50 ratio 1:1 (Compound 1:comparator); 95% confidence interval in parentheses

Q) Reported Combination Indices at % HIV Inhibition (Confidence Interval) 75% for Cc1cn([C@H]2C=C[C@@H](CO)O2)c(=O)[nH]c1=O [Stavudine, stavudine] : what is it?
A) 0.60 (0.41, 0.80)

Q) Reported Combination Indices at % HIV Inhibition (Confidence Interval) 75% for Cc1cccc(C)c1OCC(=O)N[C@@H](Cc1ccccc1)[C@@H](O)C[C@H](Cc1ccccc1)NC(=O)[C@H](C(C)C)N1CCCNC1=O [Lopinavir, lopinavir] : what is it?
A) 0.66 (0.48, 0.84)

Q) Reported Combination Indices at % HIV Inhibition (Confidence Interval) 75% for Nc1nc(=O)n([C@@H]2CS[C@H](CO)O2)cc1F [Emtricitabine, emtricitabine] : what is it?
A) 0.49 (0.37, 0.61)

Q) Reported Combination Indices at % HIV Inhibition (Confidence Interval) 75% for O=c1[nH]cnc2c1ncn2[C@H]1CC[C@@H](CO)O1 [Didanosine, didanosine] : what is it?
A) 0.16 (0.15, 0.17)

Q) Reported Combination Indices at % HIV Inhibition (Confidence Interval) 75% for Cc1ccnc2c1NC(=O)c1cccnc1N2C1CC1 [Nevirapine, nevirapine] : what is it?
A) 0.22 (0.16, 6.28)

Q) Reported Combination Indices at % HIV Inhibition (Confidence Interval) 75% for Cc1c(O)cccc1C(=O)N[C@@H](CSc1ccccc1)[C@H](O)CN1C[C@H]2CCCC[C@H]2C[C@H]1C(=O)NC(C)(C)C [Nelfinavir, nelfinavir] : what is it?
A) 0.47 (0.39, 0.56)

Q) Reported Combination Indices at % HIV Inhibition (Confidence Interval) 75% for CC(C)CN(C[C@@H](O)[C@H](Cc1ccccc1)NC(=O)O[C@H]1CCOC1)S(=O)(=O)c1ccc(N)cc1 [Amprenavir, amprenavir] : what is it?
A) 0.35 (0.26, 0.45)

Q) Reported Combination Indices at % HIV Inhibition (Confidence Interval) 75% for CC(C)(C)NC(=O)[C@@H]1CN(Cc2cccnc2)CCN1C[C@@H](O)C[C@@H](Cc1ccccc1)C(=O)N[C@H]1c2ccccc2C[C@H]1O [Indinavir, indinavir] : what is it?
A) 0.69 (0.34, 1.04)

Q) Reported Combination Indices at % HIV Inhibition (Confidence Interval) 75% for Nc1nc(NC2CC2)c2ncn([C@H]3C=C[C@@H](CO)C3)c2n1 [Abacavir, abacavir] : what is it?
A) 0.77 (0.46, 1.09)

Q) Reported Combination Indices at % HIV Inhibition (Confidence Interval) 75% for Nc1ccn([C@@H]2CS[C@H](CO)O2)c(=O)n1 [Lamivudine, lamivudine] : what is it?
A) 0.79 (0.35, 1.23)

Q) Reported Combination Indices at % HIV Inhibition (Confidence Interval) 75% for Cc1cn([C@H]2C[C@H](N=[N+]=[N-])[C@@H](CO)O2)c(=O)[nH]c1=O [Zidovudine, zidovudine] : what is it?
A) 0.53 (0.29, 0.78)

Q) Reported Combination Indices at % HIV Inhibition (Confidence Interval) 75% for CON(Cc1ccc(F)cc1)C(=O)C=C(O)C(=O)O [Compound 2] : what is it?
A) 0.51 (0.37, 0.65)

Q) Reported Combination Indices at % HIV Inhibition (Confidence Interval) 75% for CC(C)c1nc(CN(C)C(=O)N[C@H](C(=O)N[C@@H](Cc2ccccc2)C[C@H](O)[C@H](Cc2ccccc2)NC(=O)OCc2cncs2)C(C)C)cs1 [Ritonavir, ritonavir] : what is it?
A) 0.61 (0.45, 0.77)

Q) Reported Combination Indices at % HIV Inhibition (Confidence Interval) 75% for CC(C)Nc1cccnc1N1CCN(C(=O)c2cc3cc(NS(C)(=O)=O)ccc3[nH]2)CC1 [Delavirdine, delavirdine] : what is it?
A) 0.49 (0.38, 0.61)

Q) Reported Combination Indices at % HIV Inhibition (Confidence Interval) 75% for CC(C)(C)NC(=O)[C@@H]1C[C@@H]2CCCC[C@@H]2CN1C[C@@H](O)[C@H](Cc1ccccc1)NC(=O)[C@H](CC(N)=O)NC(=O)c1ccc2ccccc2n1 [Saquinavir, saquinavir] : what is it?
A) 0.31 (0.28, 0.35)

Q) Reported Combination Indices at % HIV Inhibition (Confidence Interval) 75% for c1cc(CN2CCCNCCNCCCNCC2)ccc1CN1CCCNCCNCCCNCC1 [AMD-3100] : what is it?
A) 0.62 (0.31, 0.92)

Q) Reported Combination Indices at % HIV Inhibition (Confidence Interval) 75% for Nc1ccn([C@H]2CC[C@@H](CO)O2)c(=O)n1 [Zalcitabine, zalcitabine] : what is it?
A) 0.61 (0.43, 0.78)
